Origin of measurements: the nanobody polyreactivity screen of Harvey et al. (2022)

test-name: yeast display, Sf9 membrane polyspecificity reagent, FACS + sequencing; frameworks hold sequencing errors

# seq, polyreactivity (PSR sort gate)
data = [
    ("QVQLVESGGGLVQAGGSLRLSCAASGSTFRRYARGWYRQAPGKERELVAAISTRGGSTYYADSVKGRFTISRDNAKNTVYLQMNSLKPEDTAVYYCAADEPKYTSSSSRRYGYWGQGTQVTVSS", "high polyreactivity"),
    ("QVQLVESGGGLVQAGGSLRLSCAASGSTFEQYAMGWYRQAPGTERELVASISTGGGRTYYADSVKGRFTISRDNAKYTVYLQMNSLKPEETAVFYCNKRYRGYKTGYSRFDYWVQGTQVTVSS", "low polyreactivity"),
    ("QVQLVESGGGLVQAGGSLRLSCAASGRIFGYNAMGWYREAPGKERELVAAITGSGGSTYYADSVKGRFTISRDNAKNTVYLQMNSLKPEDTAVYYFATAYAVYHVEYGYWGQGTQVTVSS", "low polyreactivity"),
    ("QVQLVESGGGLVQAGGSLRLSCAASGSTFHRYAMGWSRQAPGKERELVAAISLSGGRTYYADSVKGRFTISRDNAKNTVYLQMNSLKPEDSAVYYCNALVPSGNGDHDYWGQGTQVTVSS", "high polyreactivity"),
    ("QVQLVESGGGLVQAGGSLRLSCAASGRIFHIYAMGWYRQAPGKERELVAAIRSSGGSTYYADSVKGRFTISRDNAKNTVYLQMNSLKPEDTAVYYCAVDYGNPVYWDEMYYWGQGTQVTVSS", "low polyreactivity"),
    ("QVQLVESGGGLVQAGGSLRLSCAASGRIFFRNAMGWYRQAPGKERELVAVINTGGSTNYADSVKGRFTISRDNAKNTVYLQMNSLKPEDTAVYYCAVDRASRRTYNQYGYWGQGTQVTVSS", "high polyreactivity"),
    ("QVQIVESGGGLVQAGGSLRLSCAASGRIFVRNAMGWYRQAPAKERELVADITNGGSTNYADSVKGRFTISRDNEKNTVYLQMNSLKPEDTAVYYCAADSLGVYDGDYWGQGTQVTVSS", "low polyreactivity"),
    ("QVQLVESGGGLVQAGGRLRLSCAASASTIVGNAMGWYRQAPGKERELVATISNSGGRTYYADSVKGRFTISRDNSKYTVYLQMNSLKPEDTAVYYCNADIYPHDGYPWQGDYDYWGQGTQVTVSS", "low polyreactivity"),
    ("QVQLVESGGGLVQAGGSLRLSCAASGLTFDVYTMGWYRQAPGKETEFVAAITWDGGITYYADSVKGRFTISRDNAKNSVYLQMNSLKPEDTAVYYCAADYALGEVYWYNYWGLGTQVTVSS", "low polyreactivity"),
    ("QGQLVESGGGLVQAGGSLRLSCAASGFTFVYNAMGWYRQAPGKERELVAAITSGGNTYYADSVKGRFTISRDNAKNTVYLQMNSLKPEDTAVYYCAALSYYRFSQEDDYWGQGTQVTVSS", "high polyreactivity"),
    ("QVQLVESGGGLVQAGGSLRLSFAASGRTFHGYAMGWYRQAPGKERELVARINWSDGRTYYADSVKGRFTISRDNAKNTVYLQMNSLKPEDTAVYYCAADKTVSYAPAWYYYWGQGTHVTVSS", "low polyreactivity"),
]

---

test-name: yeast display, Sf9 membrane polyspecificity reagent, FACS + sequencing; frameworks hold sequencing errors

# seq, polyreactivity (PSR sort gate)
records = [
    ("QVQLVESGGGLVQAGGSLRLSCAASGSTFDAYAMGWYRQAPGKERQLVAAITHGGSTNYADSVKGRFTISRDNAKNTVYLQMNSLKPEDTAVYYCNAQHRTVWGIFGRFNYWGQATQVTVSS", "low polyreactivity"),
    ("QVQLVESGGGLVQAGGSLRLSCAASGSTFYLYAMGWYRQAPGKEREFVAAISWSGGRTYYAYSVKGRFTISRDNAKNTVYLQMNSLKPEDTAVYYCAARRRYTWQYTRYDMGYWGQGTQVTVSS", "low polyreactivity"),
]

---

test-name: yeast display, Sf9 membrane polyspecificity reagent, FACS + sequencing; frameworks hold sequencing errors

# seq, polyreactivity (PSR sort gate)
rows = [
    ("QVQLVESGGGLVQAGGSLRLSCAASGFTFAKYAMGWYRQAPGKERELVAAISSNGGTTYYADSVKGRFTISRDNAKNTVYLQMNSLKPEDTAVYYCAVRSRVYPSRVKYDYWGQGTQVTVSS", "high polyreactivity"),
    ("QVQLVESGGGLVQAGGSLRLSCAASGRIIKTNAMGWYRQAPGKERELVAAISSSGGRTYYADSVKGRFTISRDNAKNTVYLQMNSLKPEDTAVYYCAAPSLVSFGYWGQGTQVTVSS", "high polyreactivity"),
]

---

test-name: yeast display, Sf9 membrane polyspecificity reagent, FACS + sequencing; frameworks hold sequencing errors

# seq, polyreactivity (PSR sort gate)
records = [
    ("QVQLVESGGGLVQAGGSLRLSCAASGRIFYRNAMGWYRQAPGKERELVAAISKSGGSTYYADSVKGRFTISRDNAKNTVYLQMNSLKPEDTAVYYCNARPGQSGARFGYWGQGTQVTVSS", "high polyreactivity"),
    ("QVQLVESGGGLVQAGGSLRLSCAASGSIFQSNAMGWDRQAPGKERELVAAISSSGVRTYYADSVKGRFTISRDNAKNTVYLQMNSLKPEDTAVYYCATGWYYAGGPTYEYYYWGQGTQVTVSS", "low polyreactivity"),
    ("QVQLVESGGGLVQAGGSLRLSCAASGRIFVRNAMGWYRQAPGKERELVASISSSSGSTYYADSVKGRFTISRDNAKNTVYIQMNSLKPEDTAVYYCNAGYHFVHWPHVKHKKFDYWGQGTQVTVSS", "low polyreactivity"),
    ("QVQLVESGGGLVQGGGSLSLSCAASGSNFWRYAMGWYRQAPGKEMELVAVISDRGCITYYADSVKGRFTISRDNAKNTVYLQMNSLKPEDTAVYYCNAVDSDRSDPSEYDYWGQGTQVTLSS", "low polyreactivity"),
    ("QVHLVESGGGLVQAGGSLRLSCAASGSTLYDNAMGWYRQAPGKERELVAAITRRGAGTYYADSVKGRFTISRDNAKNTVYLQMNSLKPEDTAVYYCNAGRPYFVRYYYWGHGTQVTVSS", "high polyreactivity"),
    ("QVQLVESGGGLVQAGGSLRLSCAASGSTFPPYAMGWYRQAPGKERELVAAITASGGRTYYADSVKGRFTLSRDNAKNTVYLQMNSLKPEDTAVYYCAALRGSTYDYWGQGTQVTVSS", "high polyreactivity"),
    ("QVQLQESGGGLVQACGSLRLSCAASGYIFSHQYMGWYRQAPGKERELVASISPGATTNYADSVKGRFTISRDNAKNTVYLQMNSLKPEDTAVYYYAVQTPDVIRHFYWGQGTQVTVSS", "high polyreactivity"),
    ("QVQLVESGGGLVQAGGSLRLSCAASGFTPGNVMGWYRQAPGKERELVAAISWSGDSTYYADSVKGRFTISRDNAKNTVYLQMNSLKPEDTAVYYCAADGVPGRAVDYEYWGQGTQVTVSS", "high polyreactivity"),
    ("QVHLVESGGGLVQAGGSLRLSCAASGFTFFYYAMGWYRPAPGKERELVAAINSGDNTNYADSVKGRFTISRDNAKNTVYLLMNSLIPEDTAVYYCAAQDYARGVVPGRRAMGYWGQGTQVSVSS", "high polyreactivity"),
    ("QGQLVESGGRLVQAGGSLRLSCAASGFIFRSYAMGWYRQAPAKERELVAVISRRGVNTPYADSVKGRFTISRDTSKNTVYLQMNSLKAEDTAVYYCAKGLTALGDYWGQGTQVNVSS", "high polyreactivity"),
    ("QVQLVESGGGLVQAGGSLRLSCAASGFIFSYNAMGWYRQAPGSERELVAAITRRTASTYYADSVKGRFTISRDNAKNTVYFQMNSLKPEDTAVYYCAADSSLKRPYYAGYYYWGQGTQVTVSS", "high polyreactivity"),
]

---

test-name: yeast display, Sf9 membrane polyspecificity reagent, FACS + sequencing; frameworks hold sequencing errors
quantity-kind: polyreactivity (PSR sort gate)

# seq, meas-value
data = [
    ("QVQLVESGGGLVQAGGSLRLSCAASGRIFVLYAMGWYRQAPGKERELVADITVSGGSTYYADSVKGRFTISRDNAKNTVYLQMNSLKPEDTAVYYCAADQRYWKFDSWGQGTQVTVSS", "high polyreactivity"),
    ("QVQLVESGAGLVQAGGSLRLSCAASGGTFLYYAMGWYRQAPGKERELVAVINSNGGSTYYADSVKGRFTISRDNAKNTVYLQMNSLKPEDTAVYYCAADYQSYVYIGYGYWGQGTQVTVSS", "low polyreactivity"),
    ("QVQLVESGGGLVQAGGSLRLSCAASGSIFYHNAMGWYRQAPGKERELVAAITWSGSTTYYADSVKGRFTISRDNAKNTVYLQMNSLKPEDTAVYYCNGGYRHGHYDYWGQGTQVTVSS", "low polyreactivity"),
    ("QVQLVESGGGLVQAGGSLRLSCAASGSIFVSYAMVWYRQAPGKERELVAAITRSGGSTYYADSVKGRFTISRDNAKNTVYLQMNSLKPEDTAVYYCAARSYLGAYRRYYWGQGTQVTVSS", "high polyreactivity"),
    ("QVQLVESGGGLVQAGGSLRLSCAASGFIIQGNAMGWYRQAPGKERELVAAISSCVSTYYADSVKGRFTISRDNAKNTVYLQMNSLKPEDTAVYYCNAGFPLSLWLGDYWGQGTHVTVSS", "low polyreactivity"),
    ("QVQLLESGGGLVQAGGSLRLSCAASGSTFASYAMGWYRQAPGKETELVAAITRTGSTYYADSVKGRFTISRDNAKNTVYLQMNSLKPEDTAVYYCAKLWIGGYKYYYWGQGTQVTVSS", "high polyreactivity"),
    ("QVQLVESGGGLVQAGGSLRLSCAASGSIFKRNDMGWYRQAPGKERELVAAITWSGGSTYYADSVKGRFTISRDNAKNTVYLQMNSLKPEDTAVYYCNAARDDWYIIKYDYWGQGTQVTVSS", "low polyreactivity"),
    ("QVQLVESVGGLVQAGGSLRLSSAASGRTFSNAKGWYRQAPGKERELVADISSGGSTNYADSVKGRFTISRDNAKNTVYLQMNSLKPEDPAVYYCAAVSGSLYGYSDDYWGQGTQVTVSS", "low polyreactivity"),
    ("QVQLVESGGGLVQAGGSLRLSCAASGITFDRYAMGWYRQAPGKERELVAAITTRGTRTYADSVKGRFTISRDNAKNTVYLQMNSLKPEDTAVYYCAATSYRLTYAWPYYYWGQGTQVTVSS", "high polyreactivity"),
    ("QVQLVESGGGLVQAGGSLRLSCAASGLILSSNARGWYRQAPGKETELVAAITWDGDRTYADSVKGRFTISRDNAKNTVYLQMNSLKPEDTAVYYCAAYPYYYYGYDYWGQGTQVTVSS", "low polyreactivity"),
    ("QLQLEESGGGLVQAGASLPLSCAASGLTFVEYAMGCYRQAPGKEREFVAAIRSRGGSTYYADSVKGRFTISRDNAKTTVYLQMNSLKPEDTAVYYCNADGYFWGQGTQVTVSS", "low polyreactivity"),
    ("QVQLVESVLGLVQAGGSLRLSCAASGSTILSNAIGWYRQAPGKERELVAAITSGGSTYYADSVKGGFTISRDNAKNTVYFQMNSLKPDDTAVYYCAVRYDRRRYDYWGQGTQVTVSS", "low polyreactivity"),
    ("QVQLVESGGGLVQAGGSLRLSCAASGSIFDSYAMGWYRQAPGKERELVATINTSGGSTYYADSVKGRFTIHDNAKNTVYLQKNSLKPEDTAVYYCNAGRWVYWQNNFGDYGYWGQGTQVTVSS", "low polyreactivity"),
    ("QVQLVESGGGLVQAGGSLRLSCAASGSTFVFYAMGWYRQAPGKERELVAAITISGDITYYADSVKGRFTISRDNAKNTVYLQMNSLKPEDTAVYYCAADWHSWRWGYYYWGQGTQVTVSS", "low polyreactivity"),
    ("QVQLVESGGGLVQAGGSLRLSCAASGRTFSFYAMGWYRQAPGKERELVAGIDWDDGSTSYADSVKGRFTISRDNAKNTVYLQMNSLKPEDTAVYYCAADIGYDVYNDYDYWGQGTQVTVSS", "low polyreactivity"),
    ("QVQLVESGGGLVQAGGSLRLSCAASGRTFYNNAMGWYRQAPGKERELVAVISRGGTTYYPDSVKGRFTISRDNAKNTVYLQMNSLKAEDTSVYYCAKQVPSGDSSSQMGSWGQGTQVTVSS", "low polyreactivity"),
    ("QVQLVESGGGLVQAGGSLRLSCAASGGISYRYAMGWYRQAPGKERELVAAISGRGTSTYYADSVKGRFTISRDNAKNTVYLQMNSLKTEDTAVYYCNAQVGNFGYRSGGYDYWGQGTQVTVSS", "high polyreactivity"),
    ("QVQLVESGGGLVQAGGSLRLSSAASGRTFFGYAMGCYRQAPGTERELVAVISYSDGSTYYADSVKGRFTISRDNAKNTVYLQMNSLKPEDTAVYYCNARSRVGNSGADYDYWGQGTQETVSS", "low polyreactivity"),
    ("QVQLVESGGGLVQAGGSLRISCAASGSTFRRYAMGWYRQAPGKEREFVAVITSSGVITYYADSVKGRFTISRDNAKNTVYLQMNSLKPEDTAVYYCATDARSMDYWGQGTQVTVSS", "low polyreactivity"),
    ("QVQLVESGGGLVQAGGSLRLSCAASGIFDYYGMGWYRQAPGKERELVAAITWNGGSTYYADSVKGRLTISRDNAKNTVYVQMNSLKPEDTAVYYCATTDWYHSPGYDYRGQGTQVTVSS", "low polyreactivity"),
    ("QVQLVESGGGLVQAGGSLRLSCAASGRTFDGNAMGWYRQAPGKERELVAAISQGGGSTYYADSVKGRFTISRDNAKNTVYLQMNSLKPEDTAVYYCNAVGYTPRKPSKFDYWGQGTQVTVSS", "low polyreactivity"),
]
